Tested on: L1210 murine leukemia
assay.summary: In vivo antitumor activity on DCF1 mice bearing L1210 murine leukemia
condition.notes: dose 0.500 mg/kg, i.p. days 1, 5, 9; mean survival time vs control; 60-day observation
Method: The in vivo antitumor activity of the compounds of present invention was studied on DCF1 mice bearing L1210 murine leukemia. Healthy female DCF1 mice were inoculated by intraperitoneal injection with 1×10^5 L1210 leukemia cells per animal. […] The results are shown in Table 1 where T/C(%) values are determined by dividing the mean survival time of the treated mice by that of the control mice, the quotient so obtained being multiplied by 100. […]
Where a name gives a salt, the structure may show the parent alone.
value.type: T/C (%)
# value in %; strip the unit string

### Prompt Provide one value: measured T/C (%) of COc1cccc2c1C(=O)c1c(O)c3c(c(O)c1C2=O)CC(O)(C(=O)COC(=O)C(C)N)CC3OC1OC(C)C(O)C(O)C1F (stereo not shown) [Example 9, HCl salt]
### Response 244

### Prompt Consider the molecule COc1cccc2c1C(=O)c1c(O)c3c(c(O)c1C2=O)CC(O)(C(=O)COC(=O)CN)CC3OC1OC(C)C(O)C(O)C1F (stereo not shown) [Example 3, HCl salt] and give its recorded T/C (%).
### Response 328

### Prompt Return value of T/C (%) for input COc1cccc2c1C(=O)c1c(O)c3c(c(O)c1C2=O)C[C@@](O)(C(=O)CO)C[C@@H]3O[C@H]1C[C@H](N)[C@H](O)[C@H](C)O1 [Doxorubicin hydrochloride, reference compound] , no commentary.
### Response 218

###

Tested on: L1210 murine leukemia
assay.summary: In vivo antitumor activity on DCF1 mice bearing L1210 murine leukemia
condition.notes: dose 0.500 mg/kg, i.p. days 1, 5, 9; mean survival time vs control; 60-day observation
Where a name gives a salt, the structure may show the parent alone.
Entries and their T/C (%) values follow.
The reply should contain only the number, in %.

{"compound": "COc1cccc2c1C(=O)c1c(O)c3c(c(O)c1C2=O)CC(O)(C(=O)COC(=O)CCCCCN)CC3OC1OC(C)C(O)C(O)C1F (stereo not shown) [Example 7, HCl salt]", "test.system": "L1210 murine leukemia", "T/C (%)": 168}
{"compound": "COc1cccc2c1C(=O)c1c(O)c3c(c(O)c1C2=O)CC(O)(C(=O)COC(=O)C(N)C(C)C)CC3OC1OC(C)C(O)C(O)C1F (stereo not shown) [Example 11, HCl salt]", "test.system": "L1210 murine leukemia", "T/C (%)": 226}
{"compound": "COc1cccc2c1C(=O)c1c(O)c3c(c(O)c1C2=O)CC(O)(C(=O)COC(=O)CCN)CC3OC1OC(C)C(O)C(O)C1F (stereo not shown) [Example 5, HCl salt]", "test.system": "L1210 murine leukemia", "T/C (%)": 189}

Attention now turns to another entry.
### Prompt Complete the entry with T/C (%) for COc1cccc2c1C(=O)c1c(O)c3c(c(O)c1C2=O)CC(O)(C(=O)COC(=O)C1CCCN1)CC3OC1OC(C)C(O)C(O)C1F (stereo not shown) [Example 13, HCl salt]
### Response 213

The reported numbers originate from patent US5220001A.
